# ASSAY_METHOD_TEXT: Cytotoxicity on FL cells (cell proliferation inhibition)
# Format: cell-based, human
# DETAILS: human, fl human amnion cells; ratio of FL cell IC50 to MIC for mycoplasmas
MEASURED_QUANTITY: selectivity ratio at 72 h

COMPOUND | selectivity ratio at 72 h
CC1CN(c2c(F)c(N)c3c(=O)c(C(=O)O)cn(C4CC4)c3c2F)CCN1 (centres unmarked) | 66 to 528

Please give measured selectivity ratio at 72 h of the following entry: NCC1CN(c2c(F)c(N)c3c(=O)c(C(=O)O)cn(C4CC4)c3c2F)CCO1 (centres unmarked)
180 to 1440
